# testedTarget: T1, canine urokinase plasminogen activator receptor, recombinant protein (canine)
# T1 construct: Recombinant c uPAR produced by VIB (Ghent); also called c uPAR; canine uPAR
# T1 chain: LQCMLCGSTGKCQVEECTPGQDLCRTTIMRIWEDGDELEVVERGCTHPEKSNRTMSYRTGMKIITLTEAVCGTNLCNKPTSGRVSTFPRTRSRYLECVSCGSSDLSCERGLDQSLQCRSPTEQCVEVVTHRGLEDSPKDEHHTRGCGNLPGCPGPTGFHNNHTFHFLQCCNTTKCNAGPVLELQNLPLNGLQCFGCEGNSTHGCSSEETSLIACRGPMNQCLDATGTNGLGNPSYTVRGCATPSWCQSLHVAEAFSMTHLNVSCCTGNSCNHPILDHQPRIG
# runDescription: SPR (Biacore T200) kinetics, purified sdAb 150-0.62 nM, c uPAR immobilised on CM5, 1:1 fit
In this section we review reported kon values for a set of binders.
Give the quantity in M⁻¹ s⁻¹, number only.

Study these solved cases before continuing.
INPUT: Tell me kon reported for sdAb 18 (clone 5H2) with carboxy-terminal hexahistidine tag (VHH, C-terminal 6His for purified-protein SPR; koff screen used bacterial extracts; also called Nr 18) VHH: QVQLQESGGGLAQPGGSLRLSCTASGFTSDYYGIGWFRQAPGKEREGVSCISSSDGSTYYADSVKGRFTISRDNAKNTVYLQMNSLKPEDTAVYYCATRGASCYYTGSYSLGYDYWGQGTQVTVSS
OUTPUT: 100000

INPUT: Report kon for sdAb 15 (clone 5A4) with carboxy-terminal hexahistidine tag (VHH, Lead compound; C-terminal 6His for purified-protein SPR; koff screen used bacterial extracts of the pMECS-GG construct; also called sdAb15.6His; Nr 15) VHH: QVQLQESGGGWVQPGGSLRLSCAASGFTLDYYGIGWFRQAPGKEREGVSCISSSDGSTYYADSVKGRFTISRDNAKNTVYLQMNSLKPEDTAVYYCATRGASCYYTGSYSLGYDYWGQGTQVTVSS
OUTPUT: 170000

INPUT: Respond only with kon recorded for sdAb 17 (clone 5B7) with carboxy-terminal hexahistidine tag (VHH, C-terminal 6His for purified-protein SPR; koff screen used bacterial extracts; also called Nr 17) VHH: QVQLQESGGGLVQPGGSLRLSCAVSGSTLEYYGIGWFRQAPGKEREGVSCISSSDGSTYYADSVKGRFTISRDNAKNTVYLQMNSLKPEDTAVYYCATRGASCYYTGSYSLGYDYWGQGTQVTVSS
OUTPUT: 120000

Now, please, on to the next binder.
INPUT: Using the record for sdAb 16 (clone 5A5) with carboxy-terminal hexahistidine tag (VHH, C-terminal 6His for purified-protein SPR; koff screen used bacterial extracts; also called Nr 16) VHH: QVQLQESGGGLVQPGGSLRLSCAISGFTLDYYGIGWFRQAPGKEREGVSCISSSDGSTYYADSVKGRFTISRDNAKNTVYLQMNSLKPEDTAVYYCATRGASCYYSGSYSLGYDYWGQGTQVTVSS , state its measured kon.
OUTPUT: 86000
